# Test system: E. histolytica HM1: IMSS
# experimental details: Trophozoite viability IC50 determination, Amebae assay (ATPLite)
# Assay type: cell-based
# study conditions: Entamoeba histolytica; trophozoites, 72 hr, anaerobic, ATP level; read-out: Cell viability values Mean IC50 (nM) E. histolytica HM1: IMSS
property label: IC50

[[record]]
smiles_representation = "CO[C@@H]1[C@H](OC(=O)Nc2c(F)cccc2B(O)O)CC[C@]2(CO2)[C@H]1[C@@]1(C)O[C@@H]1CC=C(C)C"
assay_result = "> 1000 nM"

[[record]]
smiles_representation = "CO[C@@H]1[C@H](OC(=O)Nc2ccc3c(c2)COB3O)CC[C@]2(CO2)[C@H]1[C@@]1(C)O[C@@H]1CC=C(C)C"
assay_result = "< 10 nM"

[[record]]
smiles_representation = "CO[C@@H]1[C@H](OC(=O)Nc2ccc(Cl)c(B(O)O)c2F)CC[C@]2(CO2)[C@H]1[C@@]1(C)O[C@@H]1CC=C(C)C"
assay_result = "> 1000 nM"

[[record]]
smiles_representation = "CO[C@@H]1[C@H](OC(=O)Nc2ccc(F)c(F)c2B(O)O)CC[C@]2(CO2)[C@H]1[C@@]1(C)O[C@@H]1CC=C(C)C"
assay_result = "> 1000 nM"

[[record]]
smiles_representation = "CO[C@@H]1[C@H](OC(=O)Nc2cc(C(=O)O)ccc2B(O)O)CC[C@]2(CO2)[C@H]1[C@@]1(C)O[C@@H]1CC=C(C)C"
assay_result = "101 to 1000 nM"

[[record]]
smiles_representation = "CO[C@@H]1[C@H](OC(=O)Nc2ccc(B(O)O)cc2)CC[C@]2(CO2)[C@H]1[C@@]1(C)O[C@@H]1CC=C(C)C"
assay_result = "10.1 to 100 nM"

